- test method notes: Aqueous solubility by sequential dilution in water, microscopic inspection
- assay conditions: water, thermodynamic from solid
solubility by entry:
Report as a plain number; the unit mM is understood.

# count of solved cases: 4
- compound: "COc1cc(CC(C)C)c(CO)cc1CCN"
  solubility, mM: 44.4
- compound: "COCc1cc(CCN)c(OC)cc1Br"
  solubility, mM: 43.5
- compound: "COCc1cc(CCN)c(OC)cc1CC(C)C"
  solubility, mM: 365
- compound: "COCc1cc(CCN)c(O)cc1CC(C)C"
  solubility, mM: 110

We next turn to a different compound, shown below.
Inquiry: Data request, read-out solubility, for COc1cc(CC(C)C)c(OC)cc1CCN [Compound 2C-iBu, reference compound]
Reply text: 31.2

---

- system name: 5-HT2B (Homo sapiens, UniProt P41595)
- Sequence (P41595 whole entry): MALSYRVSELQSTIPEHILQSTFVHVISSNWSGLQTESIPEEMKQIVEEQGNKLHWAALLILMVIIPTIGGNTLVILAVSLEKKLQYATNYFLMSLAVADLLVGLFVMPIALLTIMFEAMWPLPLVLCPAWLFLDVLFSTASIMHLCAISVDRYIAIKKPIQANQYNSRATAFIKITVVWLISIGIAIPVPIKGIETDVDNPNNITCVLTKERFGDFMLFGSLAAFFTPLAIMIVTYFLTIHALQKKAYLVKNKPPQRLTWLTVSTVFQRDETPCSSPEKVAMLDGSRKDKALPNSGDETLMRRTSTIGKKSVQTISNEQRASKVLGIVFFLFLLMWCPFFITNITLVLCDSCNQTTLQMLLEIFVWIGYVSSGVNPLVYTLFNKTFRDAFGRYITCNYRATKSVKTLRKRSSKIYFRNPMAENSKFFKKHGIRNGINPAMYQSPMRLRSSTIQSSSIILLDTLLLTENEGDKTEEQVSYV
- test method notes: Calcium flux agonist assay, 293T cells
- Format: cell-based
- Design: expressed in transfected cells; host or cells: Human Embryonic Kidney (293T) cells, transient
observation type: EC50 (nM)
Report as a plain number; the unit nM is understood.

# count of solved cases: 3
- molecule: "COCc1cc(CCN)c(OC)cc1Br [Compound 2CB-5MM]"
  observation type: "EC50"
  result: 23.4
- molecule: "COc1cc(CCN)c(OC)cc1Br [Compound 2C-B, reference compound]"
  observation type: "EC50"
  result: 9.98
- molecule: "COCc1cc(CCN)c(OC)cc1CC(C)C [Compound 2CiBu-5MM]"
  observation type: "EC50"
  result: 497

We next turn to a different molecule, shown below.
Inquiry: Data request, read-out EC50, for COc1cc(CC(C)C)c(OC)cc1CCN [Compound 2C-iBu, reference compound]
Reply text: 22.3

---

- system name: alpha2A (h) (Homo sapiens, UniProt P08913)
- Construct: expressed in transfected cells; host or cells: CHO cells
- Sequence (P08913 1-465): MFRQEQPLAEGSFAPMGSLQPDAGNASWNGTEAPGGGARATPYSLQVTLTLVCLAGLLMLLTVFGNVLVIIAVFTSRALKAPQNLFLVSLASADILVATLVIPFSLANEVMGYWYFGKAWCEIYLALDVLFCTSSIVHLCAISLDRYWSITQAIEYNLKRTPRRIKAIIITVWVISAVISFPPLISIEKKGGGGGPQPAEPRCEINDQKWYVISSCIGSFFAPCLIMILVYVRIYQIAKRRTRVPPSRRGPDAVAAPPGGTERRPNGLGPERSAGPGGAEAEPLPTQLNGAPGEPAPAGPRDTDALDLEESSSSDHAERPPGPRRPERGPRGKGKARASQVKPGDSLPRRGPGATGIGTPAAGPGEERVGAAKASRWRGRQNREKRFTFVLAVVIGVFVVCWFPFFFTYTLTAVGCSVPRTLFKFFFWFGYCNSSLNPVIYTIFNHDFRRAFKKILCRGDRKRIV
- test method notes: Radioligand binding alpha2A (h) (antagonist radioligand), [^3H]RX 821002, CHO cells
observation type: Mean Percent Inhibition of Control Specific Binding (%)
Report as a plain number; the unit % is understood.

# count of solved cases: 3
- compound: "COCc1cc(CCN)c(O)cc1CC(C)C [2CiBu-2OH-5MM]"
  unit: "%"
  result: 79.4
- compound: "COCCc1cc(CCN)c(OC)cc1Br [Compound 2CB-5ME, reference compound]"
  unit: "%"
  result: 73.0
- compound: "COCc1cc(CCN)c(OC)cc1CC(C)C [Compound 2CiBu-5MM]"
  unit: "%"
  result: 88.5

Inquiry: Data request, read-out Mean Percent Inhibition of Control Specific Binding, for COCc1cc(CCN)c(OC)cc1Br [Compound 2CB-5MM]
Reply text: 80.2

---

- system name: norepinephrine transporter(h) (Homo sapiens, UniProt P23975)
- Construct: expressed in transfected cells; host or cells: CHO cells
- Sequence (P23975 whole entry): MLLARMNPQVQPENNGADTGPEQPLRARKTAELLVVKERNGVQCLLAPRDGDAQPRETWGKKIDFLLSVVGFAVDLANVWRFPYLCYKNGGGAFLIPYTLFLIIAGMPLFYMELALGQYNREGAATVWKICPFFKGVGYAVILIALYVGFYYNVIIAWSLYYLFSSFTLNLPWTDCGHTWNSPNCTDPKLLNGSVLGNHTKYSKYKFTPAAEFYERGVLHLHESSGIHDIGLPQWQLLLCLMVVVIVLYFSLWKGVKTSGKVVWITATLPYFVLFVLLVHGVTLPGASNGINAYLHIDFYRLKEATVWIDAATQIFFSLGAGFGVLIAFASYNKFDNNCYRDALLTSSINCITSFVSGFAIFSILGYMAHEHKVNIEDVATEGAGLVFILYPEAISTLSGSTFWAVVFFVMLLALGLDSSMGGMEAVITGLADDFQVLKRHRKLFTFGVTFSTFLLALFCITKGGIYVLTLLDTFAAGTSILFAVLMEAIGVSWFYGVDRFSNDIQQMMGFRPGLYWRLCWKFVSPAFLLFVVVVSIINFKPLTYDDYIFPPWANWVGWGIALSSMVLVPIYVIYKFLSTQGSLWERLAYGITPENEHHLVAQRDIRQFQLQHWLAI
- test method notes: Radioligand binding NE transporter (h) (antagonist radioligand), [^3H]nisoxetine, CHO cells
Mean Percent Inhibition of Control Specific Binding by entry:
Report as a plain number; the unit % is understood.

# count of solved cases: 3
- compound: "COCCc1cc(CCN)c(OC)cc1Br [Compound 2CB-5ME, reference compound]"
  result: 11.4
- compound: "COCc1cc(CCN)c(OC)cc1CC(C)C"
  result: "−5.4"
- compound: "COCc1cc(CCN)c(O)cc1CC(C)C"
  result: 17.4

We next turn to a different compound, shown below.
Inquiry: Field: Mean Percent Inhibition of Control Specific Binding (norepinephrine transporter(h) (Homo sapiens, UniProt P23975)). Entry: `COCc1cc(CCN)c(OC)cc1Br`
Reply text: 0.2
